Provide the recorded koff for the entries that follow.
# SYSTEM: T1, recombinant human IL-6 (human, UniProt P05231 30-212)
# T1 construct: Bought protein
# T1 sequence (P05231 30-212 limits assumed): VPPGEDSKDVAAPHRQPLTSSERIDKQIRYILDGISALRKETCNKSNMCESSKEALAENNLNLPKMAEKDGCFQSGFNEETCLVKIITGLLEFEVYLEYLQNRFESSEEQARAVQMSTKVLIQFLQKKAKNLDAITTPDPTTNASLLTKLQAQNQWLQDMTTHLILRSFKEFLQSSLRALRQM
# ASSAY REMARKS: SPR Biacore, supernatant Ab on Protein A chip, IL-6 analyte, 25 C
Supply the numeric figure in s⁻¹, leaving out any unit text.

Query block: What value of koff has been reported for the following binder? anti-IL-6 antibody, light chain A54L (heavy chain WT) (antibody, V domains shown, See note of m2; also called WT / A54L) VH: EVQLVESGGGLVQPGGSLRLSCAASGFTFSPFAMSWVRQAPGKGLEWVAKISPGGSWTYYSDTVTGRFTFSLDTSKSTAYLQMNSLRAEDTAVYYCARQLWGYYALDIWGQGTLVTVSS VL: DIQLTQSPSSLSASVGDRVTITCSASISVSYMYWYQQKPGKAPKLLIYDMSNLLSGVPSRFSGSGSGTDFTLTISSLQPEDFATYYCMQWSGYPYTFGQGTKVEIK
Result block: 0.00021

Query block: What value of koff has been reported for the following binder? anti-IL-6 antibody, light chain S51K (heavy chain WT) (antibody, V domains shown, See note of m2; also called WT / S51K) VH: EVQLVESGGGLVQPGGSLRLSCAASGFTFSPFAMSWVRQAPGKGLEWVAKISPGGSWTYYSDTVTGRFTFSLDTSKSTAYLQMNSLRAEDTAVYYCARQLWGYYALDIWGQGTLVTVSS VL: DIQLTQSPSSLSASVGDRVTITCSASISVSYMYWYQQKPGKAPKLLIYDMKNLASGVPSRFSGSGSGTDFTLTISSLQPEDFATYYCMQWSGYPYTFGQGTKVEIK
Result block: 0.000212

Query block: What value of koff has been reported for the following binder? anti-IL-6 antibody, light chain M32V (heavy chain WT) (antibody, V domains shown, See note of m2; also called WT / M32V) VH: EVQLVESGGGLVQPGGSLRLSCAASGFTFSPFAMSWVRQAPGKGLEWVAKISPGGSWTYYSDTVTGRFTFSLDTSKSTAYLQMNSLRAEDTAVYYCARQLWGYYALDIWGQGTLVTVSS VL: DIQLTQSPSSLSASVGDRVTITCSASISVSYVYWYQQKPGKAPKLLIYDMSNLASGVPSRFSGSGSGTDFTLTISSLQPEDFATYYCMQWSGYPYTFGQGTKVEIK
Result block: 0.000116

Query block: What value of koff has been reported for the following binder? anti-IL-6 antibody, light chain S30A (heavy chain WT) (antibody, V domains shown, See note of m2; also called WT / S30A) VH: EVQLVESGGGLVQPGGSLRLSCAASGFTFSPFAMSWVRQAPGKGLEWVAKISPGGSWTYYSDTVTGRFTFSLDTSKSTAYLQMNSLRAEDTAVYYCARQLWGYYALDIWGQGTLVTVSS VL: DIQLTQSPSSLSASVGDRVTITCSASISVAYMYWYQQKPGKAPKLLIYDMSNLASGVPSRFSGSGSGTDFTLTISSLQPEDFATYYCMQWSGYPYTFGQGTKVEIK
Result block: 0.000163

Query block: What value of koff has been reported for the following binder? anti-IL-6 antibody, light chain S30G (heavy chain WT) (antibody, V domains shown, See note of m2; also called WT / S30G) VH: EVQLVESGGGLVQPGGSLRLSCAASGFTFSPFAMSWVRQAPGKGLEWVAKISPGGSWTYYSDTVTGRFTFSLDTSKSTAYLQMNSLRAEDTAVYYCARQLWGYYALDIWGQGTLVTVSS VL: DIQLTQSPSSLSASVGDRVTITCSASISVGYMYWYQQKPGKAPKLLIYDMSNLASGVPSRFSGSGSGTDFTLTISSLQPEDFATYYCMQWSGYPYTFGQGTKVEIK
Result block: 0.000173
